TEST_TARGET: human FAAH (Fatty Acid Amide Hydrolase) (Homo sapiens (Human), UniProt O00519)
Sequence (O00519 whole entry): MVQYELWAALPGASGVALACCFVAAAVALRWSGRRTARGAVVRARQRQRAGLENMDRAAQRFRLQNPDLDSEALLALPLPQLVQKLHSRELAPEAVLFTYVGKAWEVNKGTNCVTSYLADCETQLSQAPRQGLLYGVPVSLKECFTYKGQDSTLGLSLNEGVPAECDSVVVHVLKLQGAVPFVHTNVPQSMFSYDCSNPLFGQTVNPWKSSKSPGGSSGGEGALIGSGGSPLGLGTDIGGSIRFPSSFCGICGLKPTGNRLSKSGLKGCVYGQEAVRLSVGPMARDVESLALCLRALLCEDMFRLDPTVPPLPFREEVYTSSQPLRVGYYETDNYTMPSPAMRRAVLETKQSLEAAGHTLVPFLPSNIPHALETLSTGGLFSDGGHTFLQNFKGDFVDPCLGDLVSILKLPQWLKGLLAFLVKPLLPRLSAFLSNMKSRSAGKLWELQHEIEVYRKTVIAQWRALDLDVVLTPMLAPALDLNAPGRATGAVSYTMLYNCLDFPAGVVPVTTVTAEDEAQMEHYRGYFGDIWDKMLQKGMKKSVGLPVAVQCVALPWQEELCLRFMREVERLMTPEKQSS
TEST_METHOD_NOTES: FAAH inhibition, human FAAH CHO cell lysate (AAMCA fluorescence)
Format: biochemical
QUANTITY_NAME: pIC50
On this scale, pIC50 is minus log10 of a concentration expressed in M (mol/L).

Consider the following illustrative entries.
COMPOUND: CCOC(=O)N1CCC(c2nc(-c3ccc([S+](C)[O-])cc3)c(Sc3ccc(Cl)cn3)o2)CC1 (stereo not shown) [Example A7.23]
TEST_TARGET: human FAAH (Fatty Acid Amide Hydrolase) (Homo sapiens (Human), UniProt O00519)
pIC50: 7.21
--
COMPOUND: COCCOC(=O)N1CCC(c2nc(-c3ccc([S+](C)[O-])cc3)c(Sc3ccc(Cl)cn3)o2)CC1 (stereo not shown) [Example A7.24]
TEST_TARGET: human FAAH (Fatty Acid Amide Hydrolase) (Homo sapiens (Human), UniProt O00519)
pIC50: 6.70
--
COMPOUND: COC(=O)N1CCC(c2nc(-c3ccc([S+](C)[O-])cc3)c(Sc3ccc(Cl)cn3)o2)CC1 (stereo not shown) [Example A7.17]
TEST_TARGET: human FAAH (Fatty Acid Amide Hydrolase) (Homo sapiens (Human), UniProt O00519)
pIC50: 7.12

// next item, pIC50 requested
Fill in: pIC50 of C[S+]([O-])c1ccc(-c2nc(C3=CCC(O)CC3)oc2Sc2ccc(Cl)cc2)cc1 (stereo not shown) [Example C6.2] is ___
8.06

---

TEST_TARGET: human FAAH (Fatty Acid Amide Hydrolase) (Homo sapiens (Human), UniProt O00519)
TEST_METHOD_NOTES: FAAH inhibition, human FAAH CHO cell lysate (AAMCA fluorescence)
Format: biochemical
# pIC50 per record follows
On this scale, pIC50 is minus log10 of a concentration expressed in M (mol/L).

COMPOUND: C[S+]([O-])c1ccc(-c2nc(C3CCN(S(C)(=O)=O)CC3)oc2Sc2ccc(Cl)cn2)cc1 (centres unmarked)
pIC50: 6.54
--
COMPOUND: CC(C)(C)OC(=O)N1CCC(c2nc(-c3ccc(S(C)(=O)=O)cc3)c(Sc3ccc(Cl)cn3)o2)CC1
pIC50: 7.18
--
COMPOUND: Clc1ccc(Sc2oc(C3CCOCC3)nc2-c2ccc(N3CCNCC3)nc2)cc1
pIC50: 8.02
--
COMPOUND: Clc1ccc(Sc2oc(C3CCOCC3)nc2-c2cn[nH]c2)cc1
pIC50: 6.84
--
COMPOUND: C[S+]([O-])c1ccc(-c2nc(C3=CCOCC3)oc2Sc2ccc(Cl)cc2)cc1 (centres unmarked)
pIC50: 7.80
--
COMPOUND: CC(C)OC(=O)N1CCC(c2nc(-c3ccc([S+](C)[O-])cc3)c(Sc3ccc(Cl)cn3)o2)CC1 (centres unmarked)
pIC50: 7.34
--
COMPOUND: C[S+]([O-])c1ccc(-c2nc(C3CCN(C(=O)OCCNCCO)CC3)oc2Sc2ccc(Cl)cn2)cc1 (centres unmarked)
pIC50: 5.67
--
COMPOUND: Clc1ccc(Sc2oc(C3CCOCC3)nc2-c2cnc3[nH]ncc3c2)cc1
pIC50: 7.17
--
COMPOUND: Clc1ccc(Sc2oc(C3CCOCC3)nc2C2CCNCC2)nc1
pIC50: 5.00
--
COMPOUND: Clc1ccc(Sc2oc(C3CCOCC3)nc2C2=CCCNC2)cc1
pIC50: 5.34

Fill in: pIC50 of Clc1ccc(Sc2oc(C3CCOCC3)nc2-c2ccc(N3CCOCC3)nc2)cc1 is ___
7.89

Fill in: pIC50 of Cn1nnc2ccc(-c3nc(C4CCOCC4)oc3Sc3ccc(Cl)cc3)cc21 is ___
7.04

Fill in: pIC50 of Clc1ccc(Sc2oc(C3CCOCC3)nc2-c2ccc3[nH]ncc3c2)cc1 is ___
8.38

Fill in: pIC50 of Clc1ccc(Sc2oc(C3CCOCC3)nc2-c2ccc3ncnn3c2)cc1 is ___
6.93

Fill in: pIC50 of CS(=O)(=O)c1ccc(-c2nc(C3CCNCC3)oc2Sc2ccc(Cl)cn2)cc1 is ___
6.03

---

TEST_TARGET: UniProt:O00519
TEST_METHOD_NOTES: FAAH inhibition, human FAAH CHO whole cell format
Assay type: cell-based
Please use yes for IC50 under 700 nM and no for everything else, ties included.

COMPOUND: Clc1ccc(Sc2oc(C3CCOCC3)nc2-c2ccc(N3CCNCC3)nc2)cc1 [Example B5.9]
CLASS_LABEL: yes

Now examine the next entry.
Does this compound meet the criterion IC50 < 700 nM? CC(C)(O)c1ccc(-c2nc([C@H]3CC[C@H](CO)CC3)oc2Sc2ccc(Cl)cc2)cn1 [Example B5.35]
yes

---

TEST_TARGET: human FAAH (Fatty Acid Amide Hydrolase) (Homo sapiens (Human), UniProt O00519)
TEST_METHOD_NOTES: FAAH inhibition, human FAAH CHO whole cell format
Assay type: cell-based
Please use 1 for IC50 under 800 nM and 0 for everything else, ties included.

COMPOUND: Clc1ccc(Sc2oc(C3CCOCC3)nc2-c2ccc(N3CCNCC3)cc2)cc1 [Example B5.21]
CLASS_LABEL: 1
--
COMPOUND: CN(C(=O)c1ccc(-c2nc(C3CCOCC3)oc2Sc2ccc(Cl)cc2)cc1)C1CCOC1 (centres unmarked) [Example B5.26]
CLASS_LABEL: 1

Does this compound meet the criterion IC50 < 800 nM? CN(C)CCOC(=O)N1CCC(c2nc(-c3ccc([S+](C)[O-])cc3)c(Sc3ccc(Cl)cn3)o2)CC1 (centres unmarked) [Example A7.29]
0

---

TEST_TARGET: human FAAH (Fatty Acid Amide Hydrolase) (Homo sapiens (Human), UniProt O00519)
TEST_METHOD_NOTES: FAAH inhibition, human FAAH CHO cell lysate (AAMCA fluorescence)
Type: biochemical
# IC50 per record follows
Number plus unit, in that order.

Consider the following illustrative entries.
COMPOUND: CN1CCC(c2nc(-c3ccc([S+](C)[O-])cc3)c(Sc3ccc(Cl)cn3)o2)CC1 (centres unmarked) [Example A7.20]
IC50: 1700 nM
//
COMPOUND: COC(=O)Cn1cc(-c2nc(C3CCOCC3)oc2Sc2ccc(Cl)cc2)cn1 [Example B5.13]
IC50: 320 nM
//
COMPOUND: C[S+]([O-])c1ccc(-c2nc(C3CCOCC3)oc2Sc2ccc(Cl)cn2)cn1 (centres unmarked) [Example A7.2]
IC50: 293 nM
//
COMPOUND: Clc1ccc(Sc2oc(C3CCOCC3)nc2-c2cnn(CC3OCCO3)c2)cc1 [Example B5.5]
IC50: 255 nM

Fill in: IC50 of COCCOCC(=O)N1CCC(c2nc(-c3ccc([S+](C)[O-])cc3)c(Sc3ccc(Cl)cn3)o2)CC1 (centres unmarked) [Example A7.25] is ___
525 nM

Fill in: IC50 of CC(C)(O)c1ccc(-c2nc(C3CCOCC3)oc2Sc2ccc(Cl)cc2)cn1 [Example B5.1] is ___
17.9 nM

Fill in: IC50 of Clc1ccc(Sc2oc(C3CCOCC3)nc2-c2cnc3[nH]ccc3c2)cc1 [Example B5.4] is ___
27.6 nM

Fill in: IC50 of C[S+]([O-])c1ccc(-c2nc(C3=CCCCC3)oc2Sc2ccc(Cl)cc2)cc1 (centres unmarked) [Example C6.1] is ___
11.9 nM

Fill in: IC50 of C[S+]([O-])c1ccc(-c2nc(C3CCNCC3)oc2Sc2ccc(Cl)cn2)cc1 (centres unmarked) [Example A7.15] is ___
1420 nM

Fill in: IC50 of C[S+]([O-])c1ccc(-c2nc(C3CCN(C(=O)Oc4ccccc4)CC3)oc2Sc2ccc(Cl)cn2)cc1 (centres unmarked) [Example A7.21] is ___
25.9 nM

Fill in: IC50 of CC(=O)N1CCC(c2nc(-c3ccc([S+](C)[O-])cc3)c(Sc3ccc(Cl)cn3)o2)CC1 (centres unmarked) [Example A7.18] is ___
839 nM

Fill in: IC50 of CN(C)c1ncc(-c2nc(C3CCOCC3)oc2Sc2ccc(Cl)cc2)cn1 [Example B5.11] is ___
13.1 nM

Fill in: IC50 of C[S+]([O-])c1ccc(-c2nc(C3CCN(C(=O)OCCN4CCOCC4)CC3)oc2Sc2ccc(Cl)cn2)cc1 (centres unmarked) [Example A7.27] is ___
482 nM

---

TEST_TARGET: human FAAH (Fatty Acid Amide Hydrolase) (Homo sapiens (Human), UniProt O00519)
TEST_METHOD_NOTES: FAAH inhibition, human FAAH CHO whole cell format
Type: cell-based
# IC50 per record follows

COMPOUND: CC(C)(O)c1ccc(-c2nc([C@H]3CC[C@H](C(C)(C)O)CC3)oc2Sc2ccc(Cl)cc2)cn1
TEST_TARGET: human FAAH (Fatty Acid Amide Hydrolase) (Homo sapiens (Human), UniProt O00519)
IC50: 185 nM
--
COMPOUND: Cc1nnc(-c2cccc(-c3nc(C4CCOCC4)oc3Sc3ccc(Cl)cc3)c2)o1
TEST_TARGET: human FAAH (Fatty Acid Amide Hydrolase) (Homo sapiens (Human), UniProt O00519)
IC50: ≥ 10000 nM
--
COMPOUND: CC(C)COC(=O)N1CCC(c2nc(C3CCOCC3)oc2Sc2ccc(Cl)cn2)CC1
TEST_TARGET: human FAAH (Fatty Acid Amide Hydrolase) (Homo sapiens (Human), UniProt O00519)
IC50: ≥ 10000 nM
--
COMPOUND: O=C(c1ccc(-c2nc(C3CCOCC3)oc2Sc2ccc(Cl)cc2)cc1)N1CCOC1
TEST_TARGET: human FAAH (Fatty Acid Amide Hydrolase) (Homo sapiens (Human), UniProt O00519)
IC50: 383 nM
--
COMPOUND: CC(=O)N1CCC(c2nc(C3CCOCC3)oc2Sc2ccc(Cl)cn2)CC1
TEST_TARGET: human FAAH (Fatty Acid Amide Hydrolase) (Homo sapiens (Human), UniProt O00519)
IC50: 1810 nM

Fill in: IC50 of CC(c1ccc(-c2nc(C3CCOCC3)oc2Sc2ccc(Cl)cc2)cc1)N1CCOCC1 (stereo not shown) is ___
1530 nM

Fill in: IC50 of Clc1ccc(Sc2oc(C3CCOCC3)nc2-c2cnc3n2CCC3)cc1 is ___
205 nM

Fill in: IC50 of CS(=O)(=O)c1ccc(-c2nc(C3CCNCC3)oc2Sc2ccc(Cl)cn2)cc1 is ___
≥ 10000 nM

Fill in: IC50 of Clc1ccc(Sc2oc(C3CCOCC3)nc2-c2cnc3[nH]ccc3c2)cc1 is ___
63.8 nM

Fill in: IC50 of CCNC(=O)N1CCC(c2nc(C3CCOCC3)oc2Sc2ccc(Cl)cn2)CC1 is ___
9700 nM

Fill in: IC50 of CC(C)(O)c1ccc(-c2nc(C3CCOCC3)oc2Sc2ccc(Cl)cc2)cn1 is ___
45.1 nM

Fill in: IC50 of O=C(c1ccc(-c2nc(C3CCOCC3)oc2Sc2ccc(Cl)cc2)cc1)N1CCSC1 is ___
1340 nM

Fill in: IC50 of Cn1nnc2ccc(-c3nc(C4CCOCC4)oc3Sc3ccc(Cl)cc3)cc21 is ___
169 nM

Fill in: IC50 of C[S+]([O-])c1ccc(-c2nc(C3CCOCC3)oc2Sc2ccc(Cl)cn2)cn1 (stereo not shown) is ___
935 nM

Fill in: IC50 of Clc1ccc(Sc2oc(C3CCOCC3)nc2-c2cnc3[nH]ncc3c2)cc1 is ___
98.1 nM

Fill in: IC50 of C[S+]([O-])c1ccc(-c2nc(C3CCNCC3)oc2Sc2ccc(Cl)cn2)cc1 (stereo not shown) is ___
≥ 10000 nM

Fill in: IC50 of Clc1ccc(Sc2oc(C3CCOCC3)nc2-c2ccc3nncn3c2)cc1 is ___
774 nM

Fill in: IC50 of CN(C)c1ncc(-c2nc(C3CCOCC3)oc2Sc2ccc(Cl)cc2)cn1 is ___
36.9 nM

Fill in: IC50 of CC(C)(O)c1ccc(-c2nc(C3CCOCC3)oc2Cc2ccc(Cl)cc2)cn1 is ___
701 nM
